ASSAY DETAILS: Solubility measurement of saturated solutions by HPLC at room temperature (0 h and 24 h)
Assay type: physicochemical
ASSAY SETUP: buffered water with excipients, pH 4, aqueous with cosolvent or surfactant or cyclodextrin, thermodynamic from solid, CBS 30 mM pH 4.0, NaCl 6 mg/mL; SBE-beta-CD 40 mg/mL + Kollidon 12 PF 5 mg/mL; 24 h; pH exp 4.2
MEASURE NAME: solubility at 24 h (µg/mL)
Please reply with the bare figure in µg/mL and do not write the unit itself.

Request: Could you tell me which solubility at 24 h is on file for "COc1cc(N2CCNCC2)ccc1Nc1ncc2c(n1)-n1ccc(C(=O)Nc3c(C)cccc3C)c1CC2" ?
Result: 3750

====

ASSAY DETAILS: Solubility measurement of saturated solutions by HPLC at room temperature (0 h and 24 h)
Format: physicochemical
ASSAY SETUP: buffered water with excipient (saturated solution), pH 4, aqueous with cosolvent or surfactant or cyclodextrin, thermodynamic from solid, CBS 30 mM pH 4.0; PEG 400 500 mg/mL; 24 h; pH exp 6.4
Method: The vial contents are prepared starting with 2.5 mg of the compound of formula (I). The primary excipient is added followed by any further excipient and then the buffered water to a total volume of 500 μL. All components are mixed in a vortex mixer for ca. 5 minutes. […] The solubility in vial 1 is measured immediately as described below. To measure solubility 400 μl of the suspension are taken and placed in a centrifugation device above a 0.2 μm filter. […] The pH of the solution is measured. […]
MEASURE NAME: solubility at 24 h

Request: Recorded solubility at 24 h of COc1cc(N2CCNCC2)ccc1Nc1ncc2c(n1)-n1ccc(C(=O)Nc3c(C)cccc3C)c1CC2 [compound of formula (I)] , please.
Result: ≥ 4550 µg/mL

====

ASSAY DETAILS: Solubility measurement of saturated solutions by HPLC at room temperature (0 h and 24 h)
Assay type: physicochemical
ASSAY SETUP: buffered water with excipients, pH 4, aqueous with cosolvent or surfactant or cyclodextrin, thermodynamic from solid, CBS 30 mM pH 4.0, NaCl 3 mg/mL; SBE-beta-CD 40 mg/mL + PEG 400 10 mg/mL; 24 h; pH exp 4.2
MEASURE NAME: solubility at 24 h (µg/mL)
Hi! Could you send only the number? It should be in µg/mL, unit omitted.

Request: solubility at 24 h lookup needed for "COc1cc(N2CCNCC2)ccc1Nc1ncc2c(n1)-n1ccc(C(=O)Nc3c(C)cccc3C)c1CC2" , thanks.
Result: 3790

====

ASSAY DETAILS: Solubility measurement of saturated solutions by HPLC at room temperature (0 h and 24 h)
Type: physicochemical
ASSAY SETUP: buffered water with excipient (saturated solution), pH 4, aqueous with cosolvent or surfactant or cyclodextrin, thermodynamic from solid, CBS 30 mM pH 4.0; PG 50 mg/mL; 0 h; pH exp 4.1
MEASURE NAME: solubility at 0 h (µg/mL)
Give your result in µg/mL as a bare value.

Request: Requested field: solubility at 0 h. Item: "COc1cc(N2CCNCC2)ccc1Nc1ncc2c(n1)-n1ccc(C(=O)Nc3c(C)cccc3C)c1CC2"
Result: 200

====

ASSAY DETAILS: Solubility measurement of saturated solutions by HPLC at room temperature (0 h and 24 h)
Format: physicochemical
ASSAY SETUP: buffered water with excipients, pH 4, aqueous with cosolvent or surfactant or cyclodextrin, thermodynamic from solid, ABS (acetate) 30 mM pH 4.0, NaCl 3 mg/mL; SBE-beta-CD 40 mg/mL; 0 h; pH exp 4.0
MEASURE NAME: solubility at 0 h (µg/mL)
Numbers only; they are read as µg/mL.

Request: What value of solubility at 0 h has been reported for the following molecule? "COc1cc(N2CCNCC2)ccc1Nc1ncc2c(n1)-n1ccc(C(=O)Nc3c(C)cccc3C)c1CC2"
Result: 2880
